Target: T1, LNX2_2, Q8N448
T1 sequence (Q8N448 334-432, limits assumed, looked up): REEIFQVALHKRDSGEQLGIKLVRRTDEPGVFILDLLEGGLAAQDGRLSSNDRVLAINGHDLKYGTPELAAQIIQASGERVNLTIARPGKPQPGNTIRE
Experiment: holdup assay
Set-up: key: below the threshold = too weak to quantify, mostly under pKd 3.1 to 4
Settings: plain residues with an end cap or a label only (N-terminal biotin on a linker: ttds)
Test readout: pKd

Reference set, count: 7
Binder	Observed
GQDSREETQL [KCNT2, Q6UVM3]	below the threshold
QSARYRDTEL [TJP2, Q9UDY2]	below the threshold
VLRLQSETSV [VANGL1, Q8TAA9]	4.15
TVASEKESVM [SLC1A5, Q15758]	below the threshold
ERKLSSESQV [LRP4, O75096]	below the threshold
PKTPPTDTSV [KIR3DL3, Q8N743]	below the threshold
IDNDTESTAL [ARHGAP17, Q68EM7]	below the threshold

Request: Provide only the value of recorded pKd for SRPQRTQTQV [HPV67-E6, A4U7F2]
Result: 3.6
